Recorded pIC50 for the following compounds
Tested on: MCF-7 breast cancer cells
assay protocol: Cell cycle assay (Example 164), G2/M block in MCF-7 cells
Type: cell-based
particulars: Homo sapiens, MCF7; MCF-7, footnotes * and ** of Table 4; read-out: IC50 (footnote mark in column MCF-7 G2/M Block)
pIC50: −log10 of the molar value.
measurement type: pIC50

molecular string | reported
COC(=O)Nc1cc(C(=O)c2ccnc(Cl)c2)cc(-c2cccc3[nH]ccc23)c1 | 5.30 to 6.30
CC(=O)Nc1cc(-c2ccc(C(F)(F)F)cc2)cc(-c2cccc3[nH]ccc23)c1 | 6.00 to 7.00
COC(=O)Nc1cc(C(=O)c2ccnc(OC)c2)cc(-c2cccc3occc23)c1 | 5.30 to 6.30
COC(=O)Nc1cc(-c2ccc(OC)nc2)cc(-c2cccc3[nH]ccc23)c1 | 6.00 to 7.00

###

Test system: Jurkat cells
assay protocol: Cell viability assay (WST-1), Jurkat cells
Type: cell-based
particulars: Homo sapiens, WST-1, 48-72 hrs, 0.5% fetal calf serum
measurement type: IC50

molecular string | assayed system | reported
CS(=O)(=O)Nc1cccc(-c2cc(O)cc(Nc3cccnc3)c2)c1 | Jurkat cells | 1 to 30 µM
Nc1ccc(C(=O)c2cc(O)cc(-c3cccc4[nH]ccc34)c2)cn1 | Jurkat cells | 0.001 to 0.999 µM
Oc1cc(Nc2ccc(O)nc2)cc(-c2cccc3[nH]ccc23)c1 | Jurkat cells | 1 to 30 µM
Oc1cc(Nc2cccnc2)cc(-c2ccc3[nH]ccc3c2)c1 | Jurkat cells | 0.001 to 0.999 µM
Oc1cc(Nc2cccnc2)cc(-c2ccccc2C(F)(F)F)c1 | Jurkat cells | > 3 µM
CN(C)c1cccc(-c2cc(O)cc(Nc3cccnc3)c2)c1 | Jurkat cells | 1 to 30 µM
COc1ccc(COc2cc(Nc3cccnc3)cc(-c3cccc4sccc34)c2)cc1 | Jurkat cells | 1 to 30 µM
Oc1cc(Nc2cccnc2)cc(-c2cccc3cc[nH]c23)c1 | Jurkat cells | 1 to 30 µM
Oc1cc(Nc2cccnc2)cc(-c2cnc3ccccc3c2)c1 | Jurkat cells | 0.001 to 0.999 µM
O=C(c1cc(O)cc(-c2cccc3[nH]ccc23)c1)c1cnccn1 | Jurkat cells | 0.001 to 0.999 µM
N#Cc1cnc(Nc2cc(O)cc(-c3cccc4[nH]ccc34)c2)cn1 | Jurkat cells | > 3 µM

###

Test system: Jurkat cells
assay protocol: Cell viability assay (WST-1), Jurkat cells
Assay type: cell-based
particulars: Homo sapiens, WST-1, 48-72 hrs, 0.5% fetal calf serum
measurement type: IC50

molecule | measurement type | reported
Oc1cc(Nc2cccnc2)cc(-c2ccc3c(c2)OCO3)c1 | IC50 | 1000 to 30000 nM
Oc1cc(Nc2cccnc2)cc(-c2cccc3[nH]ccc23)c1Cc1ccccc1 | IC50 | 1000 to 30000 nM
Cc1ccc(C(=O)c2cc(O)cc(-c3cccc4[nH]ccc34)c2)cn1 | IC50 | 1 to 999 nM
O=C(c1cccnc1)c1ccc(O)c(C23CC4CC(CC(C4)C2)C3)c1 | IC50 | 1000 to 30000 nM
O=C(c1ccc(O)nc1)c1cc(O)cc(-c2cccc3[nH]ccc23)c1 | IC50 | 1000 to 30000 nM
O=C(c1cc(O)cc(-c2cccc3[nH]ccc23)c1)c1cccnc1Cl | IC50 | 1000 to 30000 nM
O=C(c1ccc(CO)nc1)c1cc(O)cc(-c2cccc3[nH]ccc23)c1 | IC50 | 1000 to 30000 nM
COc1ccc(Cc2c(O)cc(Nc3cccnc3)cc2-c2cccc3sccc23)cc1 | IC50 | 1000 to 30000 nM
Oc1ccc(C(O)c2cccnc2)cc1C12CC3CC(CC(C3)C1)C2 (stereo not drawn) | IC50 | 1000 to 30000 nM
CC(O)(c1cccnc1)c1cc(O)cc(-c2cccc3[nH]ccc23)c1 (stereo not drawn) | IC50 | 1000 to 30000 nM
Oc1cc(Nc2cccnc2)cc(-c2ccc3cc[nH]c3c2)c1 | IC50 | 1000 to 30000 nM
Cc1cncc(C(=O)c2cc(O)cc(-c3cccc4[nH]ccc34)c2)c1 | IC50 | 1 to 999 nM

###

Recorded activation at 0.1 µM for the following compounds
System: NCI-H522 non small cell lung cancer cells
assay protocol: Cell cycle assay (Example 164), G2/M block in NCI-H522 cells
Assay type: cell-based
particulars: Homo sapiens, 0.1 μM, 24 h, flow cytometry (PI), Table 3

molecular string | activation at 0.1 µM
COC(=O)Nc1cc(Nc2ccc(C#N)nc2)cc(-c2cccc3[nH]ccc23)c1 | < 50%
N#Cc1ccc(Nc2cc(O)cc(-c3cccc4[nH]ccc34)c2)cc1 | ≥ 50%
Nc1ccc(-c2cccc3[nH]ccc23)cc1C(=O)c1cccnc1 | ≥ 50%
CN(C)c1ncccc1Nc1cc(O)cc(-c2cccc3[nH]ccc23)c1 | ≥ 50%
COc1cc(C(=O)c2cc(NS(C)(=O)=O)cc(-c3cccc4[nH]ccc34)c2)ccn1 | ≥ 50%
CCc1ncccc1Nc1cc(O)cc(-c2cccc3[nH]ccc23)c1 | ≥ 50%

###

Test system: Jurkat cells
assay protocol: Cell viability assay (WST-1), Jurkat cells
Type: cell-based
particulars: Homo sapiens, WST-1, 48-72 hrs, 0.5% fetal calf serum

molecular string | IC50
O=[N+]([O-])c1cc(Nc2cccnc2)cc(-c2cccc3[nH]ccc23)c1 | 0.001 to 0.999 µM
Cn1ccc2cccc(-c3cc(O)cc(Nc4cccnc4)c3)c21 | 1 to 30 µM
Oc1cc(Nc2cccnc2)cc(-c2cccc3cn[nH]c23)c1 | 0.001 to 0.999 µM
Oc1cc(Nc2cnccn2)cc(-c2cccc3[nH]ccc23)c1 | 0.001 to 0.999 µM
Oc1cc(Nc2ccncc2)cc(-c2cccc3[nH]ccc23)c1 | 0.001 to 0.999 µM
Oc1cc(Nc2cccnc2)cc(-c2ccccc2Cl)c1 | > 3 µM
